# ASSAY: Inhibition of yeast alpha-glucosidase type 3 using p-nitrophenyl-alpha-D-glucopyranoside as substrate preincubated with substrate for 5 mins prior to enzyme challenge for 30 mins by absorbance analysis
# Parameters: species or system Saccharomyces cerevisiae
METRIC: log10 IC50 (log10 of the value in µM)

• CC(=O)c1ccccc1-n1cc(-c2ccccc2)nn1 = 2.50
• COc1cccc(/C=C/C(=O)c2ccccc2O)c1 = 2.11
• Oc1ccccc1C1=Nc2ccccc2SC(c2ccc(Cl)cc2)C1 (configuration not stated) = 1.26
• CCCCCCCCc1ccc(-n2cc(C3(O)CCCCC3)nn2)cc1 = 2.82
• Oc1ccccc1C1=Nc2ccccc2SC(c2ccc(F)cc2)C1 (configuration not stated) = 1.08
• O=[N+]([O-])c1cccc(-n2cc(C3(O)CCCCC3)nn2)c1 = 2.94
• OC1(c2cn(-c3ccccc3Cl)nn2)CCCCC1 = 2.57
